Measured values drawn from patent US11535613B2 for this set.

assay: Solid stability test of crystal forms (high temperature, high humidity, light radiation, accelerated conditions; appearance, content, impurities, crystal form by XRPD); assay type: physicochemical; settings: Light radiation (total illumination 1.2 × 10^6 Lux · hr), Day 12
Reported Endpoint: Total Impurities (%)
Report the figure in % without appending any unit label.

- Compound: "O=C(O)[C@H]1C2CCC(CC2)[C@@H]1Nc1nc(-c2n[nH]c3ncc(F)cc23)nc(C2CC2)c1F [crystal form G]"
  Reported Endpoint: "Total Impurities (%)"
  Measurement Unit: "%"
  Assay Result: 0.54

Q: Provide one value: measured Total Impurities (%) of O=C(O)[C@H]1C2CCC(CC2)[C@@H]1Nc1nc(-c2n[nH]c3ncc(F)cc23)nc(C2CC2)c1F [crystal form F]
A: 1.8

Q: Consider the compound O=C(O)[C@H]1C2CCC(CC2)[C@@H]1Nc1nc(-c2n[nH]c3ncc(F)cc23)nc(C2CC2)c1F [crystal form D] and give its recorded Total Impurities (%).
A: 3.4

Q: Please indicate Total Impurities (%) recorded for O=C(O)[C@H]1C2CCC(CC2)[C@@H]1Nc1nc(-c2n[nH]c3ncc(F)cc23)nc(C2CC2)c1F [crystal form H]
A: 1.9
